pIC50: −log10 of the molar value.
Assay read-out pIC50 on SYK kinase (Homo sapiens, UniProt P43405); records merged from the literature.

A selection of reference data follows.
CC1(C)C(=O)Nc2cc(Nc3nc4c(N5CC6(COC6)C5)nccn4n3)ccc21; > 7.00
O=C1CCc2ccc(Nc3nc4c(F)cccc4c4cn[nH]c34)cc2N1; 6.00 to 7.00
CCc1ccc(OC)c(-c2cc3nccc(-c4cc(CC)ccc4OC)c3o2)c1; 4.30 to 5.52
COc1ccc(Nc2nc(-c3ccc(C)s3)nc3cn[nH]c23)cc1OC; 6.00 to 7.00
CC(C)S(=O)(=O)N1CCO[C@H](COc2nc(-c3ccc(N4CCOCC4)cc3)cc3nccnc23)C1; 6.95
COc1cc(Nc2cc(Oc3ccc(NC(=O)Nc4cc(C(C)(C)C)cc([S+](C)[O-])c4OC)c4ccccc34)ccn2)cc(OC)c1 (centres unmarked); 6.70
Cc1cc(-c2cc3nccnc3c(OC[C@@H]3CN(S(C)(=O)=O)CCO3)n2)ccc1N(C)C; 8.52

Kindly review the next compound as well.
Bench note, SYK kinase (Homo sapiens, UniProt P43405): entry "O=C(O)/C=C/c1cccc(-c2cnc3[nH]cc(C(=O)c4cc(O)ccc4F)c3c2)c1" , its pIC50 = ≥ 5.00

----------
Assay read-out IC50 on SYK kinase (Homo sapiens, UniProt P43405); records merged from the literature.
result.type: IC50 (nM)

A selection of reference data follows.
NS(=O)(=O)N1CCO[C@H](COc2nc(-c3ccc(N4CCOCC4)cc3)cc3nccnc23)C1; 24
CC(C)c1cc(NC(=O)Nc2ccc(Oc3ccnc(Nc4cc(C#N)cc(OCCN5CCOCC5)c4)n3)c3ccccc23)n(-c2cccc(CP(C)(C)=O)c2)n1; 7
CCN1CCN(C(=O)c2cc3n(c2)CCCc2c(NC(=O)c4cc(C)cc(C)c4)n[nH]c2-3)CC1; 2780
CN(C)c1ccc(-c2cc3nccnc3c(OC3CCCOC3)n2)cc1 (centres unmarked); 58
Cc1cc(-c2cc3nccnc3c(OC[C@@H]3CNC(=O)C3)n2)ccc1N(C)C; 29
COc1ccc(-n2nc(C(C)(C)C)cc2NC(=O)Nc2ccc(Oc3ccnc(Nc4ccc5[nH]ncc5c4)n3)c3ccccc23)cn1; 8
O=C1CCC(COc2nc(-c3ccc(N4CCOCC4)cc3)cc3nccnc23)CN1 (centres unmarked); 160
Cn1c(=O)c(Nc2ccc(N3CCOCC3)cc2)nc2ccc(-c3ccncc3)cc21; 230
CNC(=O)N1CCO[C@H](COc2nc(-c3ccc(N(C)C)c(Cl)c3)cc3nccnc23)C1; 52
Cc1cc(-c2cc3nccnc3c(O[C@@H]3CCOC3)n2)ccc1N1CCN(S(C)(=O)=O)CC1; 30

1. CC(C)(C)c1cc(NC(=O)Nc2ccc(Oc3cc(Nc4ccc5[nH]ncc5c4)ncn3)c3ccccc23)n(-c2ccc(=O)n(CCO)c2)n1
2. COc1c(CNC(C)=O)cc(C(C)(C)C)cc1NC(=O)Nc1ccc(Oc2ccnc(Nc3cc(C#N)cc(OCCN4CCOCC4)c3)c2)c2ccccc12
INPUT: Please let me know which one, 1 or 2 , has a lower measured IC50 value. Indicate your choice by writing its label.
OUTPUT: 1
(1: 7 nM, 2: 799 nM)

----------
pIC50: −log10 of the molar value.
Assay read-out pIC50 on UniProtKB P43405; records merged from the literature.

A selection of reference data follows.
COCCN1CCC(c2ccc(-c3cc4nccnc4c(OC[C@@H]4CN(S(C)(=O)=O)CCO4)n3)cc2)CC1; 7.52
COc1cc(-c2cc3nccc(-c4ccc(OC5CCOCC5)nc4)c3o2)cc(OC)c1OC; 5.52 to 6.52
CC1(C)C(=O)Nc2cc(Nc3nc4c(-c5ccc(S(C)(=O)=O)cc5)nccn4n3)ccc21; 6.52 to 7.00

Kindly review the next molecule as well.
Bench note, UniProtKB P43405: entry "CN1C(=O)COc2ccc(Nc3nc4ccc(S(C)(=O)=O)cc4c4c[nH]nc34)cc21" , its pIC50 = 6.00 to 7.00

----------
Assay read-out pIC50 on SYK kinase (Homo sapiens, UniProt P43405); records merged from the literature.
pIC50: −log10 of the molar value.
result.type: pIC50

COc1cc(Nc2cc(Oc3ccc(NC(=O)Nc4cc(C(C)(C)C)cc(NS(C)(=O)=O)c4OC)c4ccccc34)ccn2)ccc1C(=O)NC1CCN(C)CC1; 7.41

a. CC(C)(C)c1cc(NC(=O)Nc2ccc(Oc3ccnc(Nc4ccc5sncc5c4)n3)c3ccccc23)n(-c2ccc(OCCN3CCOCC3)cc2)n1
b. CC1(C)OCc2cc(-c3cc4nccnc4c(OC[C@@H]4CN(S(C)(=O)=O)CCO4)n3)ccc21
INPUT: Between a and b , which one shows the larger pIC50 value? Indicate your choice by writing its label.
OUTPUT: b

----------
Assay read-out IC50 on SYK kinase (Homo sapiens); records merged from the literature.

A selection of reference data follows.
COc1ccc(C(N)=O)cc1-c1cc2nccc(-c3cc[nH]n3)c2o1; < 0.1 µM
CC(=O)N1C[C@H](O)C[C@@H]1c1nc(-c2ccc(NC(C)C)cc2)c2cnc3[nH]cc(C)c3n12; 0.03 to 0.1 µM
Cc1cc(C)cc(Nc2nc3c(-c4ccc(N5CCOCC5)cc4)nccn3n2)c1; 3 to 50 µM

Quick note, IC50 for "COc1cc(C(=O)N[C@@H]2CCCC[C@@H]2N)cc(-c2ccnc3cc(-c4cc(OC)c(OC)c(OC)c4)oc23)c1" landed at < 0.3 µM

----------
Assay read-out IC50 on SYK kinase (Homo sapiens); records merged from the literature.

A selection of reference data follows.
COc1cc(Nc2nc3c(N4CCN(C(C)=O)CC4)nccn3n2)cc(OC)c1; 3000 to 50000 nM
CONC(=O)Cc1cccc(Nc2nc(NC3C4C=CC(C4)C3C(N)=O)c3nc[nH]c3n2)c1 (racemic); < 5000 nM
CC(C)c1cc(NC(=O)Nc2ccc(Oc3ccnc(Nc4ccccc4)c3)c3ccccc23)n(-c2cccc(CP(C)(C)=O)c2)n1; 63 nM
COCCOCCOCCNC(=O)c1cc(Nc2cc(Oc3ccc(NC(=O)Nc4cc(C(C)(C)C)cc(CC(N)=O)c4OC)c4ccccc34)ccn2)cc(OC)c1; > 1240 nM

Quick note, IC50 for "CC(=O)N1CCC(n2cc(Nc3nc(-c4cocn4)nc4cn[nH]c34)cn2)CC1" landed at 100 to 1000 nM

Quick note, IC50 for "COCCCn1cc(Nc2nc(-c3ccco3)nc3cn[nH]c23)cn1" landed at < 10 nM

Quick note, IC50 for "COCCOCCOc1cc(Nc2nccc(Oc3ccc(NC(=O)Nc4cc(C(C)(C)C)cc(NS(C)(=O)=O)c4OC)c4ccccc34)n2)cc(OC)c1" landed at 67 nM

----------
Assay read-out pIC50 on SYK kinase (Homo sapiens); records merged from the literature.
pIC50: −log10 of the molar value.

A selection of reference data follows.
COc1cccc(Nc2nc3c(-c4ccccc4-c4ccccc4)nccn3n2)c1; 5.52 to 6.52
O=C1OCCN1c1ccc(Nc2nc(-c3cccs3)nc3cn[nH]c23)cc1; 6.00 to 7.00
CC(C)n1ncc(Nc2nc3ccc(S(C)(=O)=O)cc3c3cn[nH]c23)c1C#N; 6.00 to 7.00

Bench note, SYK kinase (Homo sapiens): entry "NS(=O)(=O)c1cccc(-c2nc(Nc3cnn(C4CCOCC4)c3)c3[nH]ncc3n2)c1" , its pIC50 = 7.00 to 8.00

Bench note, SYK kinase (Homo sapiens): entry CC(C)(C#N)c1ccc(-c2cc3nccnc3c(OCC3CN(S(N)(=O)=O)CCO3)n2)cc1 (centres unmarked) , its pIC50 = 7.55

Bench note, SYK kinase (Homo sapiens): entry "CC1(C)C(=O)Nc2cc(Nc3nc4c(N5CC[C@@]6(O)CCCC[C@H]6C5)nccn4n3)ccc21" , its pIC50 = > 7.00

Bench note, SYK kinase (Homo sapiens): entry CC(Oc1nc(-c2ccc(N(C)C)cc2)cc2nccnc12)C1CN(S(C)(=O)=O)CCO1 (centres unmarked) , its pIC50 = 6.58

Bench note, SYK kinase (Homo sapiens): entry "Cc1cc(Nc2nc3cncc(-c4cnn(C)c4)n3n2)ccc1NC(=O)C1CCNCC1" , its pIC50 = 5.30 to 6.00

----------
Assay read-out pIC50 on SYK kinase (Homo sapiens, UniProt P43405); records merged from the literature.
pIC50: −log10 of the molar value.
result.type: pIC50

N[C@H]1CCCC[C@H]1Nc1cc2cn[nH]c(=O)c2c(Nc2cccc3[nH]ccc23)n1; 8.57
COc1cc(Nc2nc(-c3cnc4c(c3)NCCO4)cn3ccnc23)ccc1N(C)C; 8.70
Cn1c(=O)c(Nc2ccc(N3CCC4(CC3)COC4)cn2)cc2c(F)c(-c3cc[nH]n3)ccc21; 6.94

I. CC(C)(O)c1ccc(-c2cc3nccnc3c(OCC3OCCNC3=O)n2)cc1 (centres unmarked)
II. Cc1cc2c(Nc3nc(N[C@@H]4CCCC[C@@H]4N)cc4cn[nH]c(=O)c34)cccc2[nH]1
INPUT: Between I and II , which one shows the larger pIC50 value? Indicate your choice by writing its label.
OUTPUT: II
(II: 7.80, I: 6.68)
